- measured target: UniProt:P34972
- Sequence (P34972 whole entry): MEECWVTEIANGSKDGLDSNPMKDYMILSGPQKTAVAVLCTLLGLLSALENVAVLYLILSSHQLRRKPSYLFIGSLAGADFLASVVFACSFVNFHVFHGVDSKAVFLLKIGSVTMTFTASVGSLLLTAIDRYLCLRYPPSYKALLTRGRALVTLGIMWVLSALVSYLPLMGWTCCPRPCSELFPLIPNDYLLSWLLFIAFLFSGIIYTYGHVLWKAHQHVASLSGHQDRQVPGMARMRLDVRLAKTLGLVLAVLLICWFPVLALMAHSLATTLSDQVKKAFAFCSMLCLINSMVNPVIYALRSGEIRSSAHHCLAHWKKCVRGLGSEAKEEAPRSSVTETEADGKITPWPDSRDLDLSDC
pKi: −log10 of the molar value.
measured property: pKi

Which pKi is listed for O=C(NN1CCCCC1)C1=NN(c2ccc(Cl)cc2Cl)C(c2ccc(Cl)cc2)C1 (centres unmarked) ? < 6.00

# pKi lookup, item O=C(C1=NN(c2ccc(Cl)cc2Cl)C(c2ccc(Cl)cc2)C1)N1CCCCC1 (centres unmarked) ~6.00

* * *

- measured target: transfected human CB1 receptors (Homo sapiens, UniProt P21554)
- Construct: purchased Receptor Biology, Inc
- Sequence (P21554 whole entry): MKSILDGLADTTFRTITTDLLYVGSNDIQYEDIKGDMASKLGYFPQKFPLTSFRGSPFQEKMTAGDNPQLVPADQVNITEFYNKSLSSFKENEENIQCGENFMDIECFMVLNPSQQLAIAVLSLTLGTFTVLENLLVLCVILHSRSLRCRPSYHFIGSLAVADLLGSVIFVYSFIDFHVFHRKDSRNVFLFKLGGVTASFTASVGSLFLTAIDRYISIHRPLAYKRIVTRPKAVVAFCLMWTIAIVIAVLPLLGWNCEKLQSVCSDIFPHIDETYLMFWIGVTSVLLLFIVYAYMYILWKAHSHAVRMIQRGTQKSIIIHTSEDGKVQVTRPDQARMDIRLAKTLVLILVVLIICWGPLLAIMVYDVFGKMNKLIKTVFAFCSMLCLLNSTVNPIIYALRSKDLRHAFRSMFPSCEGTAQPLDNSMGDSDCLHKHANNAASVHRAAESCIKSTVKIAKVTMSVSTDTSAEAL
- assay summary: In-vitro determination of affinity to CB1 receptor (radioligand [3H]-CP55940)
- Assay type: binding
- condition: radioligand [3H]-CP55940; read-out: CB1-Receptor Ki
measured property: pKi
To interpret pKi, take it as minus log10 of a concentration measured in moles per litre.

Lab note: need pKi for O=C(C1=NN(c2ccc(Cl)cc2Cl)C(c2ccc(Cl)cc2)C1)N1CCCCC1 (stereo not shown) on transfected human CB1 receptors (Homo sapiens, UniProt P21554), anyone have it? 6.95

* * *

- measured target: transfected human CB1 receptors (Homo sapiens)
- Construct: purchased Receptor Biology, Inc
- assay summary: In-vitro determination of affinity to CB1 receptor (radioligand [3H]-CP55940)
- Format: binding
measured property: Ki

Provide value of Ki for this record tested with transfected human CB1 receptors (Homo sapiens): O=C(NN1CCCCC1)C1=NN(c2ccc(Cl)cc2Cl)C(c2ccc(Cl)cc2)C1 (stereo not shown) < 25 nM

Hey, just so you know, these numbers are from patent EP1743636A1.
